molecular target: NLRP3 NACHT domain (Homo sapiens); construct: (K131-L679)-Avi plasmid; 8His-Strep II-ZZ-TEV site (N, cleaved yes); assay: Surface plasmon resonance (SPR); settings: biotinylated NACHT protein; single-cycle kinetics, 1:1 model
Sequence (Q96P20 131-679): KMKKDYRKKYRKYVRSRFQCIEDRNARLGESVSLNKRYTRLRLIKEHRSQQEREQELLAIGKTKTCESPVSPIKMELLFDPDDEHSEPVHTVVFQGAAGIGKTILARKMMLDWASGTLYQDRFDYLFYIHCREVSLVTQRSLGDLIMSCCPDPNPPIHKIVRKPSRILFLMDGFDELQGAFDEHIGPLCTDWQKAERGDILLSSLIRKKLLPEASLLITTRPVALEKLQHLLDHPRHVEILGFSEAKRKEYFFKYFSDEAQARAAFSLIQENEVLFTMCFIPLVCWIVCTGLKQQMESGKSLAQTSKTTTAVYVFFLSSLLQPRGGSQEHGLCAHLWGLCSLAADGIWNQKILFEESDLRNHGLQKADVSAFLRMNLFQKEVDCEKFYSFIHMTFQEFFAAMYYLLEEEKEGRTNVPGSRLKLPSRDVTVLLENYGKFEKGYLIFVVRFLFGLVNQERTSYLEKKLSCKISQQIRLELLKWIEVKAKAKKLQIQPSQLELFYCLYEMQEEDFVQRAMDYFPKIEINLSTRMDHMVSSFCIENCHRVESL
endpoint label: pKd
API: returns pKd as number; meaning -log10 of concentration in mol/L.

(Q) Notebook entry, NLRP3 NACHT domain (Homo sapiens) assay: pKd of C#CCNS(=O)(=O)c1ccc(CCN(Cc2cc(Cl)ccc2OCCC)C(=O)Cc2ccsc2)cc1 = ?
(A) 6.78
